Data credit: patent US20210355194A1

- Test system: T1, Acro SARS-CoV-2 (COVID-19) S1 protein (SARS-CoV-2, UniProt P0DTC2 16-685)
- T1 construct: also called SARS-CoV-2 S1
- Test name: SPR
pKd: −log10 of the molar value.

Binder | pKd
variant 5-49 (Fc fusion) VHH: EVQLVESGGGLVQPGGSLRLSCAASGRTSTVNGMGWFRQAPGKEREFVASISQSGAATAYADSVKGRFTISADNSKNTAYLQMNSLKPEDTAVYYCAADRTYSYSSTGYYWGQGTLVTVSS | 7.13
variant 6-82 (Fc fusion) VHH: EVQLVESGGGLVQPGGSLRLSCAASGSSLDAYGMGWFRQAPGKEREFVAAISWGGGSIYYADSVKGRFTISADNSKNTAYLQMNSLKPEDTAVYYCARLSQGMVALDYWGQGTLVTVSS | 8.15
variant 6-97 (Fc fusion) VHH: EVQLVESGGGLVQPGGSLRLSCAASGFTFSSLAMGWFRQAPGKEREFVAAITWSGDITNYADSVKGRFTITADNSKNTAYLQMNSLKPEDTAVYYCLRLSSSGFDHWGQGTLVTVSS | 5.39
variant 5-39 (Fc fusion) VHH: EVQLVESGGGLVQPGGSLRLSCAASGVTLDLYAMGWFRQAPGKEREFVAGIRWTDAYTEYADSVKGRFTISADNSKNTAYLQMNSLKPEDTAVYYCAVDIDYRDWGQGTLVTVSS | 6.93
